system: HepG2-ACTB-RAB5A; test: lowest phenotypically active concentration; higher = less potent; details: treatment time: 24 h
Structures can show the parent of a compound that is named as a salt.
readout_kind: lowest phenotypically active concentration (µM)
Entry rule: numbers only, all in µM.

Use the examples below as a reference point.
{"molecule": "CN1C[C@H](C(=O)N[C@]2(C)O[C@@]3(O)[C@@H]4CCCN4C(=O)[C@H](Cc4ccccc4)N3C2=O)C[C@@H]2c3cccc4[nH]cc(c34)C[C@H]21.CN1C[C@H](C(=O)N[C@]2(C)O[C@@]3(O)[C@@H]4CCCN4C(=O)[C@H](Cc4ccccc4)N3C2=O)C[C@@H]2c3cccc4[nH]cc(c34)C[C@H]21 [dihydroergotamine]", "experimental_target": "HepG2-ACTB-RAB5A", "result_unit": "µM", "endpoint_result": 9}
{"molecule": "CCN1CCN(C(=O)Cc2ccc(Nc3ncc(F)c(Nc4ccc(C(=O)Nc5ccccc5Cl)cc4)n3)cc2)CC1", "experimental_target": "HepG2-ACTB-RAB5A", "result_unit": "µM", "endpoint_result": 1}
{"molecule": "CCn1cnc2c(Nc3cccc(Cl)c3)nc(N[C@H]3CCCC[C@H]3N)nc21", "experimental_target": "HepG2-ACTB-RAB5A", "result_unit": "µM", "endpoint_result": 1}

HepG2-ACTB-RAB5A / lowest phenotypically active concentration / Cc1cc2c(C(C)C)c(O)c(O)c(C=O)c2c(O)c1-c1c(C)cc2c(C(C)C)c(O)c(O)c(C=O)c2c1O : value? 9

Now consider Cc1sc2c(c1C)C(c1ccc(Cl)cc1)=N[C@H](CC(=O)OC(C)(C)C)c1nnc(C)n1-2 and answer again. 9

Please give the result for O=C(Nc1ccncc1)C(=O)c1cn(Cc2ccc(Cl)cc2)c2ccccc12 too. 1

Continue with CC(C)[C@@]1(NC(=O)[C@@H]2C[C@@H]3c4cccc5[nH]cc(c45)C[C@H]3N(C)C2)O[C@@]2(O)[C@@H]3CCCN3C(=O)[C@H](Cc3ccccc3)N2C1=O [Dihydroergocristine mesylate] 3

Same question for C[C@@H]1CC[C@H]2[C@@H](C)C(=O)O[C@@H]3O[C@@]4(C)CC[C@@H]1[C@]32OO4 please. 3

Also need N#CC(C#N)=NNc1cccc(Cl)c1 , thanks. 9

====

tested on: WPMY1-TUBA1B-RELA; test: phenotypically active (imaging signature differs from DMSO and reproducible) at any of 0.3-9 uM (binary (1 = active, 0 = inactive)); higher = active; details: treatment time: 24 h
Use one of these outcomes when replying: True = active, False = inactive

Some solved cases for reference:
{"compound": "O=C1C[C@@H]2OCC=C3CN4CC[C@]56c7ccccc7N1[C@H]5[C@H]2[C@H]3C[C@H]46", "classification": "False"}
{"compound": "O=c1[nH]c2ccccc2n1C1CCN(CCCC(c2ccc(F)cc2)c2ccc(F)cc2)CC1 [pimozide]", "classification": "False"}
{"compound": "CN(C)NC(=O)CCC(=O)O [Daminozide]", "classification": "False"}
{"compound": "COC1=CC(=O)O[C@@H](/C=C/c2ccccc2)C1", "classification": "False"}
{"compound": "C[N+]12CCC(CC1)C(OC(=O)C(O)(c1ccccc1)c1ccccc1)C2 (stereo not given)", "classification": "False"}

Per the assay record, what outcome was assigned to CC(C)(C)c1cc(C=C(C#N)C#N)cc(C(C)(C)C)c1O ? True

And for N[C@@H]1C[C@H]1c1cc(F)cc(F)c1OCc1ccccc1 ? False

Same question, C[N+]1([O-])[C@@H]2C[C@@H](OC(=O)[C@H](CO)c3ccccc3)C[C@H]1[C@@H]1O[C@@H]12 (stereo not given in full) this time False

Note, next up: C[C@@H]1CC[C@H]2[C@@H](C)C(=O)O[C@@H]3O[C@@]4(C)CC[C@@H]1[C@]32OO4 True

Same lookup for CCC(=O)C(CC(C)N(C)C)(c1ccccc1)c1ccccc1 (stereo not given) , please. False

====

tested on: A549-ACTB-RAB5A; test: phenotypically active (imaging signature differs from DMSO and reproducible) at any of 0.3-9 uM (binary (1 = active, 0 = inactive)); higher = active; details: treatment time: 24 h
Choose the fitting class; nothing outside YES = active, NO = inactive is accepted.

Sample answers from the record:
{"compound": "COc1ccc2c(c1OC)C(=O)O[C@@H]2[C@H]1c2cc3c(cc2CCN1C)OCO3 [Hydrastine]", "classification": "NO"}
{"compound": "C=C[C@]12CN(C)[C@@H]3[C@H]4CO[C@H](C[C@H]41)[C@]1(C(=O)Nc4ccccc41)[C@@H]32", "classification": "NO"}
{"compound": "COc1ccc2c3c1O[C@H]1C(=O)CC[C@@]4(O)[C@@H](C2)N(C)CC[C@]314", "classification": "NO"}
{"compound": "C[C@@]1(CO)[C@H](O)CC[C@@]2(C)[C@H]1CC[C@H]1C[C@@H]3C[C@@]12CC[C@]3(O)CO", "classification": "YES"}

I'd appreciate the recorded outcome for O=c1ccc2ccc3occc3c2o1 from this test. NO

Now give it for O=P1(NCCCl)OCCCN1CCCl (stereo not drawn) [ifosfamide] too. NO

Ok, now CC(C)NCC(O)c1ccc(N)c(C#N)c1 (stereo not drawn) NO

Also, NC(=S)N/N=C/c1coc2ccccc2c1=O please. NO

====

tested on: A549-GM130-SQSTM1; assay: phenotypically active (imaging signature differs from DMSO and reproducible) at any of 0.3-9 uM (binary (1 = active, 0 = inactive)); higher = active; details: treatment time: 24 h
Where a name gives a salt, the structure may show the parent alone.
readout_kind: phenotypically active
In your answer, state the number alone without any accompanying words.

Below, each entry is followed by its recorded phenotypically active result.
{"molecule": "COc1ccc(C(=O)OC2C[C@H]3CC[C@H](C2)N3C)cc1OC (some centres not stated) [Convolamine hydrochloride]", "phenotypically active": 0}
{"molecule": "CC(C)NCC(O)c1ccc(N)c(C#N)c1 (configuration not stated) [Cimaterol]", "phenotypically active": 0}
{"molecule": "C=C(C)[C@H]1CN[C@H](C(=O)O)[C@H]1CC(=O)O [Kainic acid]", "phenotypically active": 0}
{"molecule": "Cc1cc2c(C(C)C)c(O)c(O)c(C=O)c2c(O)c1-c1c(C)cc2c(C(C)C)c(O)c(O)c(C=O)c2c1O [gossypol]", "phenotypically active": 1}
{"molecule": "C/C=C1\\C[C@@H](C)[C@](O)(CO)C(=O)OCC2=CCN3CC[C@@H](OC1=O)[C@@H]23 [Retrorsine]", "phenotypically active": 0}

Please provide the recorded phenotypically active for C[C@@]12C(=O)OC(=O)[C@]1(C)[C@H]1CC[C@@H]2O1 [Cantharidin] , tested on A549-GM130-SQSTM1. 1

Now try C[C@@H]1NCCc2cc(O)c(O)cc21 [Salsolinol hydrobromide] . 0

====

tested on: HepG2-CANX-COX4; assay: lowest phenotypically active concentration; higher = less potent; details: treatment time: 24 h
readout_kind: lowest phenotypically active concentration

Solved entries (count: 2):
{"query_smiles": "CC[C@@H]1C=CC=CC[C@H](C)[C@@H](O)[C@](C)(O)C(=O)[C@H](C)[C@@H](O)[C@H](C)C(=O)[C@H](C)[C@@H](O)[C@H](C)C=CC(=O)O[C@H]2[C@@H](C)[C@@H](CC1)O[C@@]1(CC[C@@H](C)[C@@H](C[C@H](C)O)O1)[C@@H]2C", "endpoint_result": "≤ 0.3 µM"}
{"query_smiles": "Cc1sc2c(c1C)C(c1ccc(Cl)cc1)=N[C@@H](CC(N)=O)c1nnc(C)n1-2", "endpoint_result": "≤ 0.3 µM"}

Now examine the next entry.
What reported lowest phenotypically active concentration corresponds to COc1ccc(C[C@H]2NC[C@H](O)[C@H]2OC(C)=O)cc1 on HepG2-CANX-COX4? ≤ 0.3 µM

====

tested on: WPMY1-CANX-COX4; test: phenotypically active (imaging signature differs from DMSO and reproducible) at any of 0.3-9 uM (binary (1 = active, 0 = inactive)); higher = active; details: treatment time: 24 h
The categories you may choose from are active, inactive

Consider the following illustrative entries.
{"query_smiles": "COC[C@H]1OC(=O)c2coc3c2[C@@]1(C)C1=C(C3=O)[C@@H]2CCC(=O)[C@@]2(C)C[C@H]1OC(C)=O", "classification": "inactive"}
{"query_smiles": "CC(C)[C@H]1C(=O)O[C@@H]2CCN3CC=C(COC(=O)[C@](C)(O)[C@@]1(C)O)[C@H]23", "classification": "inactive"}
{"query_smiles": "CC(C)(C)c1cc(C=C(C#N)C#N)cc(C(C)(C)C)c1O", "classification": "active"}

Look up the recorded call for CCN(CC)CCN1C(=O)CN=C(c2ccccc2F)c2cc(Cl)ccc21 in this test. inactive
